pIC50 values, listed per item
# assayed_system: Human immunodeficiency virus type 1 reverse transcriptase (Human immunodeficiency virus 1, UniProt Q72547)
# assay_overview: Inhibition of HIV1 wild-type reverse transcriptase using [3H]dTTP by scintillation counting
Would you please state pIC50, meaning minus log10 of the concentration in mol/L, as a bare number?

Cc1cccc(CCNC(=O)c2[nH]c3ccc(Cl)cc3c2S(=O)(=O)c2cc(C)cc(C)c2)c1: 6.72
Cc1cc(C)cc(S(=O)(=O)c2c(C(=O)NCc3cccc(F)c3)[nH]c3ccc(Cl)cc23)c1: 7.15
Cc1cc(C)cc(S(=O)(=O)c2c(C(=O)NCc3ccc(F)cc3)[nH]c3ccc(Cl)cc23)c1: 7.59
Cc1cc(C)cc(S(=O)(=O)c2c(C(=O)NCc3ccccc3F)[nH]c3ccc(Cl)cc23)c1: 6.74
Cc1cc(C)cc(S(=O)(=O)c2c(C(=O)N[C@H](C)c3ccccc3)[nH]c3ccc(Cl)cc23)c1: 7.41

Query: Hello, please tell me recorded pIC50 for this one: Cc1ccc(CCNC(=O)c2[nH]c3ccc(Cl)cc3c2S(=O)(=O)c2cc(C)cc(C)c2)cc1
Response: 5.70

Query: Hello, please tell me recorded pIC50 for this one: Cc1cc(C)cc(S(=O)(=O)c2c(C(=O)NCCc3ccccc3Cl)[nH]c3ccc(Cl)cc23)c1
Response: 6.88

Query: Hello, please tell me recorded pIC50 for this one: Cc1cc(C)cc(S(=O)(=O)c2c(C(=O)NCc3ccc(Cl)cc3)[nH]c3ccc(Cl)cc23)c1
Response: 7.24

Query: Hello, please tell me recorded pIC50 for this one: Cc1cc(C)cc(S(=O)(=O)c2c(C(=O)NC(C)c3ccccc3)[nH]c3ccc(Cl)cc23)c1 (racemic)
Response: 7.40

Query: Hello, please tell me recorded pIC50 for this one: Cc1cc(C)cc(S(=O)(=O)c2c(C(=O)NCCc3ccc(Cl)cc3)[nH]c3ccc(Cl)cc23)c1
Response: 7.05

Query: Hello, please tell me recorded pIC50 for this one: Cc1cc(C)cc(CNC(=O)c2[nH]c3ccc(Cl)cc3c2S(=O)(=O)c2cc(C)cc(C)c2)c1
Response: 5.15

----------
# assayed_system: Human immunodeficiency virus type 1 reverse transcriptase (Human immunodeficiency virus 1, UniProt Q72547)
# assay_overview: Inhibition of HIV1 wild-type reverse transcriptase using [3H]dTTP by scintillation counting
measured_metric: IC50
Output should be the measured figure followed by the unit it is expressed in.

# annotated cases, reported IC50 shown
Cc1cc(C)cc(S(=O)(=O)c2c(C(=O)NCc3ccccc3[N+](=O)[O-])[nH]c3ccc(Cl)cc23)c1: 23 nM
COc1ccc(CNC(=O)c2[nH]c3ccc(Cl)cc3c2S(=O)(=O)c2cc(C)cc(C)c2)cc1: 3.7 nM
Cc1cc(C)cc(S(=O)(=O)c2c(C(=O)NCc3ccc([N+](=O)[O-])cc3)[nH]c3ccc(Cl)cc23)c1: 50 nM
Cc1cc(C)cc(S(=O)(=O)c2c(C(=O)NCCc3cccc(Cl)c3)[nH]c3ccc(Cl)cc23)c1: 83 nM
Cc1ccc(CNC(=O)c2[nH]c3ccc(Cl)cc3c2S(=O)(=O)c2cc(C)cc(C)c2)cc1: 50 nM
Cc1cc(C)cc(S(=O)(=O)c2c(C(=O)NCc3ccc(N)cc3)[nH]c3ccc(Cl)cc23)c1: 7.7 nM

Query: Hello, please tell me recorded IC50 for this one: Cc1cc(C)cc(S(=O)(=O)c2c(C(=O)NCCc3ccccc3C)[nH]c3ccc(Cl)cc23)c1
Response: 288 nM

Query: Hello, please tell me recorded IC50 for this one: Cc1cc(C)cc(S(=O)(=O)c2c(C(=O)N[C@@H](C)c3ccccc3)[nH]c3ccc(Cl)cc23)c1
Response: 50 nM

----------
# assayed_system: Human immunodeficiency virus type 1 reverse transcriptase (Human immunodeficiency virus 1, UniProt Q72547, L100I)
# assay_overview: Inhibition of HIV1 wild-type reverse transcriptase L100I mutant using [3H]dTTP by scintillation counting
pIC50 values, listed per item
Would you please state pIC50, meaning minus log10 of the concentration in mol/L, as a bare number?

# annotated cases, reported pIC50 shown
Cc1cc(C)cc(S(=O)(=O)c2c(C(=O)NCc3cccc(F)c3)[nH]c3ccc(Cl)cc23)c1: 7.40
Cc1cc(C)cc(S(=O)(=O)c2c(C(=O)NC(C)c3ccccc3)[nH]c3ccc(Cl)cc23)c1 (racemic): 7.15
Cc1cc(C)cc(S(=O)(=O)c2c(C(=O)NCCc3cccc(Cl)c3)[nH]c3ccc(Cl)cc23)c1: 8.00
Cc1cc(C)cc(S(=O)(=O)c2c(C(=O)NCc3ccccc3F)[nH]c3ccc(Cl)cc23)c1: 7.15
Cc1cc(C)cc(CNC(=O)c2[nH]c3ccc(Cl)cc3c2S(=O)(=O)c2cc(C)cc(C)c2)c1: 5.23
Cc1ccc(CCNC(=O)c2[nH]c3ccc(Cl)cc3c2S(=O)(=O)c2cc(C)cc(C)c2)cc1: 4.79
Cc1cc(C)cc(S(=O)(=O)c2c(C(=O)N[C@H](C)c3ccccc3)[nH]c3ccc(Cl)cc23)c1: 7.30

Now look at this one.
Query: Hello, please tell me recorded pIC50 for this one: Cc1cc(C)cc(S(=O)(=O)c2c(C(=O)NCCc3ccccc3C)[nH]c3ccc(Cl)cc23)c1
Response: 6.70

----------
IC50 values, listed per item
# assayed_system: Human immunodeficiency virus type 1 reverse transcriptase (Human immunodeficiency virus 1, UniProt Q72547, K103N)
# assay_overview: Inhibition of HIV1 wild-type reverse transcriptase K103N mutant using [3H]dTTP by scintillation counting

Cc1cc(C)cc(S(=O)(=O)c2c(C(=O)NCCc3cccc(Cl)c3)[nH]c3ccc(Cl)cc23)c1: 5940 nM
Cc1cc(C)cc(S(=O)(=O)c2c(C(=O)NCc3cccc(F)c3)[nH]c3ccc(Cl)cc23)c1: 160 nM

Query: Hello, please tell me recorded IC50 for this one: Cc1cc(C)cc(S(=O)(=O)c2c(C(=O)NCc3ccc([N+](=O)[O-])cc3)[nH]c3ccc(Cl)cc23)c1
Response: 218 nM

Query: Hello, please tell me recorded IC50 for this one: Cc1cc(C)cc(S(=O)(=O)c2c(C(=O)NCc3ccc(F)cc3)[nH]c3ccc(Cl)cc23)c1
Response: 24 nM

Query: Hello, please tell me recorded IC50 for this one: Cc1cc(C)cc(S(=O)(=O)c2c(C(=O)N[C@@H](C)c3ccccc3)[nH]c3ccc(Cl)cc23)c1
Response: 9400 nM

----------
# System: Human immunodeficiency virus 1
# assay_overview: Antiviral activity against HIV1 harboring reverse transcriptase Y181C mutant infected in human MT4 cells assessed as inhibition of virus-induced cell death measured after 5 days of infection by MTT method
# Format: functional, organism-based
# setup_conditions: Human immunodeficiency virus 1, MT4, 120 h
measured_metric: pEC50
Would you please state pEC50, meaning minus log10 of the concentration in mol/L, as a bare number?

# annotated cases, reported pEC50 shown
Cc1cc(C)cc(S(=O)(=O)c2c(C(=O)NCc3ccc(N)cc3)[nH]c3ccc(Cl)cc23)c1: 7.96
Cc1cccc(CCNC(=O)c2[nH]c3ccc(Cl)cc3c2S(=O)(=O)c2cc(C)cc(C)c2)c1: 5.92
Cc1cc(C)cc(S(=O)(=O)c2c(C(=O)NCc3ccc(F)cc3)[nH]c3ccc(Cl)cc23)c1: 6.80

Query: Hello, please tell me recorded pEC50 for this one: Cc1cc(C)cc(S(=O)(=O)c2c(C(=O)NCc3ccc(N(C)C)cc3)[nH]c3ccc(Cl)cc23)c1
Response: 5.99

Query: Hello, please tell me recorded pEC50 for this one: Cc1cc(C)cc(S(=O)(=O)c2c(C(=O)NCc3ccccc3[N+](=O)[O-])[nH]c3ccc(Cl)cc23)c1
Response: 7.80

Query: Hello, please tell me recorded pEC50 for this one: Cc1ccc(CNC(=O)c2[nH]c3ccc(Cl)cc3c2S(=O)(=O)c2cc(C)cc(C)c2)cc1
Response: 6.67

----------
log10(IC50) values, listed per item
# assayed_system: Human immunodeficiency virus type 1 reverse transcriptase (Human immunodeficiency virus 1, UniProt Q72547, L100I)
# assay_overview: Inhibition of HIV1 wild-type reverse transcriptase L100I mutant using [3H]dTTP by scintillation counting
Annotation: log10 of IC50, nM basis.

# annotated cases, reported log10(IC50) shown
Cc1cc(C)cc(S(=O)(=O)c2c(C(=O)NCc3ccc(F)cc3)[nH]c3ccc(Cl)cc23)c1: 1.48
Cc1cc(C)cc(S(=O)(=O)c2c(C(=O)NCCc3ccccc3Cl)[nH]c3ccc(Cl)cc23)c1: 2.43
Cc1cccc(CCNC(=O)c2[nH]c3ccc(Cl)cc3c2S(=O)(=O)c2cc(C)cc(C)c2)c1: 3.11

Query: Hello, please tell me recorded log10(IC50) for this one: Cc1cc(C)cc(S(=O)(=O)c2c(C(=O)NCCc3ccc(Cl)cc3)[nH]c3ccc(Cl)cc23)c1
Response: 2.98

Query: Hello, please tell me recorded log10(IC50) for this one: Cc1cc(C)cc(S(=O)(=O)c2c(C(=O)N[C@@H](C)c3ccccc3)[nH]c3ccc(Cl)cc23)c1
Response: 1.90
